Exercise: state measured Human GLP-1R potency [EC50 (pM)] for each of the binders provided.
Target: human GLP-1 receptor (human, UniProt P43220 24-463)
Assay: cell-based or functional assay
Starred links: 1 amine or outer side, 2 acyl side, 3 side chain; linkers in the order of their positions; H or OH if unused. Non-standard residues stand in square brackets, D forms with d. Groups on a side chain read outwards from the residue. *: point of attachment. Butyryl(4-SO2NHCO(CH2)16Tz) = O=C(CCCCCCCCCCCCCCCCc1nnn[nH]1)NS(=O)(=O)CCCC(=O)*; C20 diacid = O=C(O)CCCCCCCCCCCCCCCCCCC(=O)*; C16 diacid = O=C(O)CCCCCCCCCCCCCCC(=O)*; γGlu = O=C(O)[C@H](CCC(=O)[*:2])N[*:1]; Trx = NC[C@H]1CC[C@H](C(=O)O)CC1; AEEA = NCCOCCOCC(=O)O; Aib = CC(C)(N)C(=O)O; Ahx = NCCCCCC(=O)O
Please give a number only; it is taken to be in pM.

**Q:** Report Human GLP-1R potency [EC50 (pM)] for Compound 0145 (peptide) peptide: H[Aib]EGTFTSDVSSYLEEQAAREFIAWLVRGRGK(Butyryl(4-SO2NHCO(CH2)16Tz))GGGASELSTAALGRLSAELHELATLPRTETGSGSP-NH2 please.
**A:** 11.9

**Q:** Look up Human GLP-1R potency [EC50 (pM)]: Compound 0268 (peptide) peptide: HWEGTFTSDVSSYLEEQAAREFIAWLVRGRK([AEEA-AEEA-γGlu-Trx-C20 diacid])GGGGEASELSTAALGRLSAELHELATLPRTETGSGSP-NH2
**A:** 26.4

**Q:** # query: Human GLP-1R potency [EC50 (pM)] of entry Compound 0630 (peptide) peptide: H[Aib]EGTFTSDVSK([Ahx-γGlu-γGlu-C16 diacid])YLEEQAARK([Ahx-γGlu-γGlu-C16 diacid])FIEWLVRGAAEASELSTAALGRLSAELHELATLPRTETGSGSP-NH2
**A:** 7.1

**Q:** Entry Compound 0086 (peptide) peptide: H[Aib]EGTFTSDVSSYLEEQAARK([AEEA-AEEA-γGlu-C16 diacid])FIEWLVRGK([AEEA-AEEA-γGlu-C16 diacid])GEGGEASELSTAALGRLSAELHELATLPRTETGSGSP-NH2 : reported Human GLP-1R potency [EC50 (pM)] = ?
**A:** 3.9
